target: SARS-CoV-2 main protease (M^pro), wild type (SARS-CoV-2, UniProt P0DTD1); assay: […]
Where no end group is shown, it is not given here.
measured_parameter: pKi
Scale: negative log10 of molar concentration, which is what pKi denotes.

Dear colleague, please send me the reported pKi for YLQYAVLRHKRREC (also: cyclic, mode of cyclization not given here) [cyclic peptide 1] when you can.
7.85

meta.source: paper doi:10.1101/2021.08.23.457419
